# PROTOCOL_DESCRIPTION: qHTS Assay for Lipid Storage Modulators (AID 1519); also: % is scaled to controls: 0 for no effect and ±100 for the full control effect
# EXPERIMENTAL_CONTEXT: Drosophila S3 cells, BODIPY lipid droplet/cell ratio, laser cytometry; at 57.5 µM (top of the series); cells loaded with oleic acid
Records with an inconclusive call do not appear.
Catalogue of activity change, negative = inhibition values
ATTRIBUTE_MEASURED: activity change, negative = inhibition (%)

COMPOUND	ATTRIBUTE_MEASURED	MEASURED_NUMBER
CC(C)NC[C@H](O)COc1cccc2ccccc12	activity change, negative = inhibition	8.19
N=S(=O)(O)Cc1noc2ccccc12	activity change, negative = inhibition	-0.718
O=c1[nH]c2ccccc2c2ccccc12	activity change, negative = inhibition	1.72
NC(Cc1cccc(-c2ccccc2CP(=O)(O)O)c1)C(=O)O (configuration not stated)	activity change, negative = inhibition	1.29
CCCc1c(OCCCOc2ccc(OCC(=O)O)cc2)ccc(C(C)=O)c1O	activity change, negative = inhibition	1
CC(=O)/C(C)=N/O	activity change, negative = inhibition	2.05
O=C(O)CCC(=O)N1CCCC1C(=O)O (configuration not stated)	activity change, negative = inhibition	-1.81
COc1ccc(C(=O)NCc2cccnc2)cc1C(=O)NCc1cccnc1	activity change, negative = inhibition	1.17
CC(=O)NCCc1c[nH]c2ccc(O)cc12	activity change, negative = inhibition	10.9
CC(=O)O[C@H]1CC2(C)[C@@H](C[C@@H](O)[C@H]3[C@@]4(C)CC[C@@H](O)[C@@H](C)[C@@H]4CC[C@@]32C)C1=C(CCC=C(C)C)C(=O)O (some centres not stated)	activity change, negative = inhibition	0.469
NCCCCN=C(N)N	activity change, negative = inhibition	6.41
CNc1cc(NS(=O)(=O)c2ccc(N)cc2)nc(NC)n1	activity change, negative = inhibition	0.422
CCCn1c(=O)c2[nH]c(C3CCCC3)nc2n(CCC)c1=O	activity change, negative = inhibition	7.3
O=C(O)Cc1c[nH]c2ccc(O)cc12	activity change, negative = inhibition	1.1
CCCC[C@@]1(C2CCCC2)Cc2cc(OCC(=O)O)c(Cl)c(Cl)c2C1=O	activity change, negative = inhibition	-1.19
CC(C)NCC(O)COc1ccc(CC(N)=O)cc1 (configuration not stated)	activity change, negative = inhibition	-4.52
N=C(N)SCCc1cnc[nH]1	activity change, negative = inhibition	2.03
Nc1ccc2c3c(cccc13)C(=O)NC2=O	activity change, negative = inhibition	0.251
NC1C=CC=C(C(=O)O)C1 (configuration not stated)	activity change, negative = inhibition	2.8
CCN1C(=O)C=CC1=O	activity change, negative = inhibition	0.136
OC[C@H]1O[C@@H](n2cnc3cncnc32)[C@H](O)[C@@H]1O	activity change, negative = inhibition	-4.73
N[C@H](C(=O)O)[C@H](O)C(=O)O	activity change, negative = inhibition	1.02
O=C(O)C1CCCNC1 (configuration not stated)	activity change, negative = inhibition	0.3
Oc1cc(O)c2c(c1)O[C@H](c1ccc(O)c(O)c1)[C@@H](O)C2	activity change, negative = inhibition	1.15
c1ccc(C2CN3CCSC3=N2)cc1 (configuration not stated)	activity change, negative = inhibition	7.49
N[C@@H](CCCC(=O)O)C(=O)O	activity change, negative = inhibition	0.27
CNCCNS(=O)(=O)c1cccc2cnccc12	activity change, negative = inhibition	0.292

Values were extracted from PubChem BioAssay (NCATS).
